Quick reference: IC50 of the listed items.
target: UniProt P08575; experiment: In vitro inhibitory activity against recombinant human CD45 using fluorescein diphosphate (FDP) as a substrate
Sequence (P08575 whole entry): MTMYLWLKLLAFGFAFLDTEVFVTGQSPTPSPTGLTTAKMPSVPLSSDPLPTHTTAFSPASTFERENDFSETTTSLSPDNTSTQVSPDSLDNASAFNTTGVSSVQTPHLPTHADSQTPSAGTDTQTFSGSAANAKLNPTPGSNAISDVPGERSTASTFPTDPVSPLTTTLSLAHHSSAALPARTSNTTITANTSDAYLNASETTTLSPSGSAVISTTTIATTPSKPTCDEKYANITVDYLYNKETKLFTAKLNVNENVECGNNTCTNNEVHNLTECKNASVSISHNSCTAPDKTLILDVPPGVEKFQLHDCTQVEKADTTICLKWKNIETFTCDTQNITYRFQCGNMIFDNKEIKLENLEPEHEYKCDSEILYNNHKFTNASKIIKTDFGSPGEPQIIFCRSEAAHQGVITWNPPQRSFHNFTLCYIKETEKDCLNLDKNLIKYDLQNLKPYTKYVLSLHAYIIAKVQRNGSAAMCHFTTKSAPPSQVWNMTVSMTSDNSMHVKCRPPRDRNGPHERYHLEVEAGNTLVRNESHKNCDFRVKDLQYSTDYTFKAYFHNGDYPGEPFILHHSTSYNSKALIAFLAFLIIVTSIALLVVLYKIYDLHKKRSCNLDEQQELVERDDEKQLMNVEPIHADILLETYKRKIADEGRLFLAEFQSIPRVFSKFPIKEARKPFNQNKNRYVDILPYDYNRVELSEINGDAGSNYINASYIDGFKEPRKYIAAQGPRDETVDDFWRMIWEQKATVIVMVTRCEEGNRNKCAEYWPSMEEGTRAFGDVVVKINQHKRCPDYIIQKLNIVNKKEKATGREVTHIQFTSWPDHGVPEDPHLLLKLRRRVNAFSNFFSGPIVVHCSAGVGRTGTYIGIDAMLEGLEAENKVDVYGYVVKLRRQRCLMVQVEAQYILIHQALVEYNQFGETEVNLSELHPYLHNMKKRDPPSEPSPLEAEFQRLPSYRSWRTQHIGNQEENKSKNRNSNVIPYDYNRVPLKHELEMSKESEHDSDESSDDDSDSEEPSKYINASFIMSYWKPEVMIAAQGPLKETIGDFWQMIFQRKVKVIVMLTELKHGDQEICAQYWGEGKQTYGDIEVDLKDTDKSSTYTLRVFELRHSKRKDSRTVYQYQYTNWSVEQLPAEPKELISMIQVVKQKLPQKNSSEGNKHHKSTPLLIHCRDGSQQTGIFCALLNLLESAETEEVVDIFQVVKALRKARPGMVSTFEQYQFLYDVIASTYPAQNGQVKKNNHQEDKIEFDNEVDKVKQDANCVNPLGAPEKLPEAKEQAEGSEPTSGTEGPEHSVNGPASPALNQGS
Supply the numeric figure in nM, leaving out any unit text.

Reference set, count: 3
O=C1C=C(c2ccccc2)c2ccccc2C1=O    840
COC(=O)c1ccc(C2=CC(=O)C(=O)c3ccccc32)cc1    1650
O=C1C=C(C2CCCCC2)c2ccccc2C1=O    3270

Next up:
Please provide the recorded IC50 for `O=C1C=C(c2c[nH]c3ccccc23)c2ccccc2C1=O` , tested on UniProt P08575. 3070

* * *

Quick reference: pIC50 of the listed items.
target: M-phase inducer phosphatase 2 (Homo sapiens); test: In vitro inhibitory activity against recombinant human Cdc25B using fluorescein diphosphate (FDP) as a substrate
Sequence (P30305 whole entry): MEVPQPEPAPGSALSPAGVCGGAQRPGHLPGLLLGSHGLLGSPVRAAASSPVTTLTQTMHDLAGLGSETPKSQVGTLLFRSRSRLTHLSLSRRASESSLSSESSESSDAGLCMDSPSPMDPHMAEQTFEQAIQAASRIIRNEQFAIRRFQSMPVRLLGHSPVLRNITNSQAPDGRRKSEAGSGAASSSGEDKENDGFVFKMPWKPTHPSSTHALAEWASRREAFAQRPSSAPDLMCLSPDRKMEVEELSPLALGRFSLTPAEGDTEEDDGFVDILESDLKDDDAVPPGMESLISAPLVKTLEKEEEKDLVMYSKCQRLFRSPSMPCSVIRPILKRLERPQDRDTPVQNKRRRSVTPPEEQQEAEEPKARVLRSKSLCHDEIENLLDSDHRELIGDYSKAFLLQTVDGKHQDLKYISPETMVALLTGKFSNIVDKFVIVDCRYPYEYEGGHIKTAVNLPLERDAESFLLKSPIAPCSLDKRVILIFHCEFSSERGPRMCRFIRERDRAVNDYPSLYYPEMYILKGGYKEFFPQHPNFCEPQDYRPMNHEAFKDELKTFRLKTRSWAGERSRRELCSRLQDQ
Kindly note that pIC50 refers to -log10 of the concentration in mol/L and answer with the value alone.

Value lookup for pIC50; key = `O=C1C=C(c2ccccc2)c2ccccc2C1=O` 5.02

Value lookup for pIC50; key = `O=C1C=C(C2CCCCC2)c2ccccc2C1=O` 5.52

Value lookup for pIC50; key = `COC(=O)c1ccc(C2=CC(=O)C(=O)c3ccccc32)cc1` 5.67

Value lookup for pIC50; key = `O=C1C=C(c2c[nH]c3ccccc23)c2ccccc2C1=O` 5.71
